Values were extracted from the supplement of paper PMC10567573.

# ASSAY: protein stability index of a GFP-peptide fusion (GPS, HEK-293T) (PSI 1-6); higher = more stable;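 also: 24-mer peptide tiles fused after GFP, lentivirally expressed, FACS-sorted into six equal bins by GFP/DsRed ratio, decoded by Illumina sequencing, PSI is the read-weighted mean bin number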
# CONDITION_DETAILS: treatment: DMSO; c terminus: a fixed tail appended
Response key: true means protein stability index >= 4; false means protein stability index < 4.

| ORDERED_RESIDUES | CAT |
| --- | --- |
| RKDVGCNRFEVTLEKSNKNFSKKI [VPS39] | false |
| ALPSVMRFCCCVAVIYLGYCFCGW [MCOLN1] | false |
| GIPNAIISVEGINHDIRTANDGDY [CPXM2] | true |
| GPLPPAPAMVRISKPKTFQAYLDD [YPEL3] | false |
| RYQKYGYIGTHEYPHFSHRPSTLQ [OAS1] | false |
| NRDEHSSRGYRNHRSSRETRDYAP [RBMY1A1] | true |

* * *

# ASSAY: protein stability index of a GFP-peptide fusion (GPS, HEK-293T) (PSI 1-6); higher = more stable
# CONDITION_DETAILS: treatment: DMSO; c terminus: a fixed tail appended
MEASURED_PROPERTY: protein stability index

| ORDERED_RESIDUES | EXPERIMENTAL_RESULT |
| --- | --- |
| GKEVKVNWATTPSSQKKDTSSSTV [TIA1] | 4.76 |
| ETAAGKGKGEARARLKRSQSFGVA [SMTNL2] | 4.39 |
| YKVSAASSFFFSGVFVGVISFGQL [SLC22A15] | 3.24 |
| ISGALLQIKTLLALSCHEQEMVVS [SLC2A12] | 2.91 |
| KVEKMLISSIKEKYPSHSFIGEES [IMPA1] | 3.26 |
| PEARYLFLLDVIPVDGARYRWQGR [TBX6] | 2.08 |
| KVWSLTGQVAEDRFPESHLPIQTP [TLE6] | 3.58 |
| ESHSCPQQVPMPPGQEAQRVVCGI [NEK8] | 4.15 |
| KKLHEEELRDLQVSVESQQVQQVE [PRPH] | 4.13 |
| NPLICPVCTKYNLRITSGVVVCQC [RPAIN] | 3.91 |
| EENIMKSNIDKKFSAHYDAVEAEL [FAM50A] | 4.98 |
| GSDLGGPLPTDPMLGLALGGLVVS [TSPAN10] | 2.88 |
| CDKHSKLFEEPEDPSNRSFFSEII [PPP2R2C] | 3.36 |
| VCVGSDVTSIHKYMVRRYFNKPSR [MYORG] | 2.37 |
| LPDNFTLKEDGMETVPWFPKKISD [TPH1] | 4.4 |
| AKGGSRLCTPEGWFSCQGPFDMDS [DFFB] | 3.01 |
| KRYDGLKYDVKKVEEVVYDLSIRG [TSN] | 3.33 |
| LSPEVLRKDPYGKPVDMWACGVIL [CAMK2D] | 2.74 |
| RLATVHMSRMINKYKRRRFQKTKN [CLPTM1] | 3.16 |
| HNRYTENSLRGVILDIHFLSQADF [FUT8] | 2.55 |
| PVKTLPFSPSQFLNFWNKQDTLEL [MYBL2] | 2.36 |
| GAAGRSQEPEVPCAAVLPGKPGDR [RSPH3] | 5.31 |
| SNDNEERLQVVKLLAKMFGAKDSE [PDS5B] | 3.17 |
| KAVKDLVVLLFETALLSSGFSLED [HSP90AB1] | 2.92 |
| STSSSTQGDPAFPEMNGNGAVAPM [NOL4L] | 4.93 |
| AYFPYFKKHNVTAVVRLNKKIYEA [CDC14A] | 2.34 |
| ASKMESTIKPRRVEPVCSGLQAQI [CHCHD6] | 3.47 |
| GRSRLYHDGKNQPGVAYPAFLGPD [SPSB4] | 3.84 |
| DQNNVIENEETGEFSIDNYPTDNT [MIA2] | 5.21 |
| VVPEKLDDLVPKGKKFLLLSINRY [ALG2] | 2.07 |
| KLWDLRTTKCVRQYEGHVNEYAYL [DCAF4] | 2.38 |
| PESPGGTTTLEGSPSVPCIFCEEH [ZNF277] | 4.82 |
| KKIYEAKRFTDAGFEHYDLFFIDG [CDC14A] | 2.36 |
| VTHTEISPEQQFDRSVQRLLATRI [TMEM175] | 3.2 |
| SKPSIQPKPLLLPAAPKTQTISSI [ATF6] | 3.88 |
| FPREHQFFEDGDVQRHLYLQDVIM [ZNF511] | 2.45 |
| TKDPDVAFHGLSLGLSLTNGLALG [PSD2] | 2.46 |
| NNWYYISPRLTFQCLEDLVNHYSE [SLA] | 2.44 |
| CQEEQLRSHENKLRQLTAELAEHR [PSD2] | 4.41 |
| WQLFGPFGAVTNVKVIRDFTTNKC [ELAVL3] | 2.36 |
| WMQVASLNEKRTFFHLSALKGYLY [KLHL13] | 2.76 |
| PGRSALIVAVLCYINLLNYMDRFT [SPNS1] | 2.81 |
| YLVENNANISIANKYDNTCLMIAA [FEM1B] | 2.38 |
| ALFAQVQRGALPAPDPELAAEMYQ [RSAD1] | 3.69 |
| KRITAHEALKHPWVCQRSTVASMM [CAMK2B] | 2.5 |
| AQNNCPAIMNALIEAGAHMDATNA [FEM1A] | 4.46 |
| TTTRHKRTANPSKTIDLGAAAHYT [CLINT1] | 3.94 |
| TYRIRIEMSKDALPEKACQLDSRY [FBXO3] | 2.37 |
| TCGVCALELGSTEVLLDHLKAHAE [PLAGL1] | 2.78 |
| AHNSNWYITFQSDTDAQQAFILKR [LARP4] | 2.38 |
| AHSSSNTIRSGISPNLNVVDGRLT [SASS6] | 4.16 |
| SALTLACYKGHLEMVRFLLEAGAD [ANKRD17] | 3.08 |
| VKDLIKKLLVVDRTRRLGNMKNGA [PRKX] | 2.62 |
